Below, each entry is listed alongside its reported mass density.
details: 293.15 K; 101 kPa; Liquid; Vibrating tube method
Numbers after ± are expanded uncertainties.

Past entries and their recorded results:
{"columns": ["molecule", "mass density"],
 "data": [
  ["CCC(C)=O", "804.926 ± 0.15 kg/m3"],
  ["COC(=O)CCCCC(=O)OC [dimethyl 1,6-hexanedioate]", "1061.93 ± 0.28 kg/m3"],
  ["CCCCO", "809.573 ± 0.14 kg/m3"]
]}

// returns reported mass density for input COC(=O)c1ccccc1C(=O)OC [dimethyl 1,2-benzenedicarboxylate]
1191.59 ± 0.39 kg/m3

// returns reported mass density for input CCC(C)O (stereo not given)
806.646 ± 0.24 kg/m3

* * *

test.description: refractive index (Na D-line) (dimensionless)
details: 303.15 K; 101.33 kPa; Liquid; Standard Abbe refractometry
Below, each entry is listed alongside its reported refractive index.
Please reply with the number alone, leaving off any unit.

Past entries and their recorded results:
{"columns": ["molecule", "refractive index"],
 "data": [
  ["COC(=O)c1ccccc1C(=O)OC [dimethyl 1,2-benzenedicarboxylate]", 1.51146],
  ["CCC(C)=O", 1.37366],
  ["CCCCO", 1.39523]
]}

// returns reported refractive index for input CCC(C)O (stereo not given)
1.39293

// returns reported refractive index for input COC(=O)CCCCC(=O)OC [dimethyl 1,6-hexanedioate]
1.42429
